- protocol-summary: in vivo
- assay-conditions: ApoE -/-, mouse, plasma, oral, 90 µg/ml in drinking water
value-type: concentration at 8 weeks (µM)
Only the number, expressed in µM, is required.

Request: What measured concentration at 8 weeks goes with CCOCCOCCOCCCCCNC(=O)NC12CC3CC(CC(O)(C3)C1)C2 [Compound 1010] ?
Response: 0.565

###

Below, each entry is listed with its recorded pIC50.
- target-entity: purified murine sEH recombinant enzyme (Mus musculus)
- Sequence (P34914 whole entry): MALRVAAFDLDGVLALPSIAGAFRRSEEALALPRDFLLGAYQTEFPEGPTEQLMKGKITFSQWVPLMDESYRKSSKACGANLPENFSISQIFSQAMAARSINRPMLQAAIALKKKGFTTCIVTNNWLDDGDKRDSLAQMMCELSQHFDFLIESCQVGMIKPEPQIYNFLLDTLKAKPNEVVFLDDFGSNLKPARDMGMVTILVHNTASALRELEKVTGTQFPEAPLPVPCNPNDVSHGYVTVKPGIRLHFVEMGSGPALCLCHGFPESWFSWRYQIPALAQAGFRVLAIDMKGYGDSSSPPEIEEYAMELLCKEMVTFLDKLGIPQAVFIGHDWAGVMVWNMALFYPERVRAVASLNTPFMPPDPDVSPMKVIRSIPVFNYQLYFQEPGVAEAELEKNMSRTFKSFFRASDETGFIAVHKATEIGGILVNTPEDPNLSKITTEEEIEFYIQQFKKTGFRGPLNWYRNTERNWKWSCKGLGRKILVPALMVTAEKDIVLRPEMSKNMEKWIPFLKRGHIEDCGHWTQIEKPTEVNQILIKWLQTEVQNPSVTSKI
- protocol-summary: sEH activity fluorescent assay
Note: pIC50 values are expressed as the negative base-10 logarithm of concentration in M.

>>> print(df.to_string())
                         structure_notation                             target_entity  readout_value
0  CCOCCOCCOCCCCCNC(=O)NC12CC3CC(CC(O)(C3)C1)C2  purified murine sEH recombinant enzyme (Mus musculus)           7.11

Turning now to a further record.
Request: What measured pIC50 goes with O=C(NCCCCCOCCOCCOCCO)NC12CC3CC(CC(C3)C1)C2 ?
Response: 8.33
